Every entry's value here was drawn from ChEMBL document CHEMBL2375229.

Test system: Radical scavenging activity
Experiment summary: Antioxidant activity of the compound assessed as DPPH free radical scavenging activity at 250 uM after 60 mins by spectrophotometric analysis relative to control
Assay type: functional
Reported metric: inhibition (%)
Give bare numbers, in %.

[
  {
    "Entry smiles": "CCn1c(-c2cccs2)nn(CN2CCN(c3ccccc3)CC2)c1=S",
    "Reported metric": "inhibition",
    "Result": 82.5
  },
  {
    "Entry smiles": "CCn1c(-c2cccs2)nn(CN2CCOCC2)c1=S",
    "Reported metric": "inhibition",
    "Result": 88.6
  }
]

Please give inhibition, item by item, for the list that follows.
1. O=C1O[C@H]([C@@H](O)CO)C(O)=C1O
2. C=CCn1c(-c2cccs2)nn(CN2CCOCC2)c1=S
3. C=CCn1c(-c2cccs2)nn(CN2CCC(C)CC2)c1=S

Ans.
1: 85.8; 2: 89.9; 3: 69.7

Please give inhibition, item by item, for the list that follows.
1. CCn1c(-c2cccs2)nn(CN2CCN(c3cccc(C(F)(F)F)c3)CC2)c1=S
2. CCCN(CCC)Cn1nc(-c2cccs2)n(-c2ccccc2)c1=S
3. CC1CCN(Cn2nc(-c3cccs3)n(-c3ccccc3)c2=S)CC1

Ans.
1. 80.2
2. 81.4
3. 66.9

For reference, reported inhibition for S=c1[nH]nc(-c2cccs2)n1-c1ccccc1 stands at 51.2

---

Provide the reported MIC of each item.
System: Aspergillus flavus
Experiment summary: Antifungal activity against Aspergillus flavus NCIM 524 assessed as growth inhibition after 3 to 4 days by serial plate dilution method
Assay type: functional
Give bare numbers, in µg/mL.

[
  {
    "Entry smiles": "CCn1c(-c2cccs2)nn(CN2CCC(C)CC2)c1=S",
    "MIC [µg/mL]": 6.25
  },
  {
    "Entry smiles": "Cc1cc(C2CCCCC2)n(O)c(=O)c1.NCCO",
    "MIC [µg/mL]": 3.12
  },
  {
    "Entry smiles": "CCn1c(-c2cccs2)nn(CN2CCN(c3cccc(C(F)(F)F)c3)CC2)c1=S",
    "MIC [µg/mL]": 3.12
  },
  {
    "Entry smiles": "C=CCn1c(-c2cccs2)n[nH]c1=S",
    "MIC [µg/mL]": 12
  }
]

For reference, reported MIC for C=CCn1c(-c2cccs2)nn(CN2CCN(c3ccccc3)CC2)c1=S stands at 3.12

---

Provide the reported inhibition of each item.
Test system: Radical scavenging activity
Experiment summary: Antioxidant activity of the compound assessed as DPPH free radical scavenging activity at 187.5 uM after 60 mins by spectrophotometric analysis relative to control
Format: functional

Please give inhibition, item by item, for the list that follows.
1. CCn1c(-c2cccs2)nn(CN2CCN(c3cccc(C(F)(F)F)c3)CC2)c1=S
2. C=CCn1c(-c2cccs2)nn(CN2CCC(C)CC2)c1=S
3. CCCN(CCC)Cn1nc(-c2cccs2)n(-c2ccccc2)c1=S

Ans.
71.3%
68.1%
72.1%
